Target: recombinant HA of influenza B virus B/Wisconsin/10 (Yamagata clade) (influenza B virus B/Wisconsin/10 …)
Experiment: recombinant HA ELISA (AttoPhos fluorescence, mean of triplicates)
quantity: fold reactivity over background (fold over background)
API: value field is a number in fold over background; no unit string.

[[record]]
binder = "TRL846 (antibody, V domains shown) VH: QVQLVESGGGLVQPGGSLRLSCTVSGFTFNSYAMNWVRQAPGKGLEWVSGIRGSGENTYYAETVKGRFTISRDNSKNTLYLEMNSLRAEDTAVYYCARKWGRMTVFGVATDQLYYFDYWGQGTLVTVSS VL: DITLTQSPATLSVSPGERATLSCRASQSVSSNLAWYQQKPGQAPRLLIYGASNRATDIPARFSGSGSGTEFTLTISSLQSEDFAVYYCQQFNDWPFLTFGGGTKVEIKR"
quantity = "fold reactivity over background"
measured_value = 25.6

[[record]]
binder = "TRL856 (antibody, V domains shown) VH: QVQLVESGGGLVQPGGSLRLSCAASGFTFSDYWMVWVRQAPGKGLVWVSRISSDGSTTSYADSVKGPFTISRDNAKNTLYLQMNSLRAEDTAVYYCARVATPYYYESGFDYWGQGALVTVSS VL: DIVLTQSPSVSVAPGQTARITCGGNDIGSKSVHWYQQKPGQAPVLVVFDDRDRPSGIPERFSGSNSGNTATLTISRVEAGDEADYYCQVWDITSDLVVFGGGTKLTVVG"
quantity = "fold reactivity over background"
measured_value = 25.6

[[record]]
binder = "TRL847 (antibody, V domains shown) VH: QVQLVESGGGLVQPGGSLRLSCVASGFTFSRFSMNWVRQAPGMGLEWVSYISDTGRTIYYADSVKGRFTISRDNDKNTLYLQMKSLRDEDSAFYYCARDPDTPFVRAFDSWGQGVLVTVSS VL: DIVMTQSPSFLSASVGDRVTITCRTSQVISSYLAWYQQRPGKAPKLLIYAASTLQSGVPSRFSGSGSGTRFSLTISNLQPEDFATYFCQQLTTYPPITFGQGTRLEIKR"
quantity = "fold reactivity over background"
measured_value = 25.6

[[record]]
binder = "TRL813 (antibody, V domains shown) VH: QVQLVESGGGLVQPGGSLRLSCAASGFIFGDFAIHWVRQASGKGLEWVARIRSGLNRFETAYAASVEGRLTISRDDSKSMAYLQMNNVKAEDTAVYLCTYLVGAVGFQHWGQGTLVTVSS VL: DIVMTQSPSTLSASVGDRVTITCRASQTIYRWLAWYQQKPGKAPKVLIYKASTLESGVPSRFSGSGSGTEFTLAISSLQPDDFATYYCQQYNSFPYRFGQGTKVEIKR"
quantity = "fold reactivity over background"
measured_value = 25.6


Then there is this binder:
Request: Please give the measured fold reactivity over background for this binder: TRL848 (antibody, V domains shown) VH: QVQLLESGGDVVQPGTSLRLSCAASGFSLWTSGMHWVRQAPGKGLEWVAVMSYDETKKYYADSVRGRFSISRDNSRNTLYLQMNSLRVEDTAVYFCAKPRLDYLDYFHAADSWGQGTLVSVSS VL: DIVLTQPPSVSVAPGQTATITCGGNYIGSKSVNWYQQRPGHAPVLVVYDDSDRPSGIPDRFSGSNSRSTATTATLTISRVEAGDEADYYCQVWETSEDLWVFGGGTKLTVLG
Response: 25.6
